Biological target: Carboxypeptidase A1 (Bos taurus)
Assay: Inhibitory constant of carboxypeptidase A (CPA) in absence of Zinc ion.
Reported Ki values follow for various molecules
measurementType: Ki

- molecule: "O=C(O)C(CCc1c[nH]cn1)Cc1ccccc1 (centres undefined)"
  experimentalResult: "15 µM"
- molecule: "O=C(O)C(Cc1ccccc1)Cc1c[nH]cn1 (centres undefined)"
  experimentalResult: "214 µM"
- molecule: "O=C(O)C(CCCc1cnc[nH]1)Cc1ccccc1 (centres undefined)"
  experimentalResult: "750 µM"
- molecule: "O=C(O)C(Cc1ccccc1)c1cnc[nH]1 (centres undefined)"
  experimentalResult: "0.26 µM"

###

Biological target: Carboxypeptidase A1 (Bos taurus)
Sequence (whole entry): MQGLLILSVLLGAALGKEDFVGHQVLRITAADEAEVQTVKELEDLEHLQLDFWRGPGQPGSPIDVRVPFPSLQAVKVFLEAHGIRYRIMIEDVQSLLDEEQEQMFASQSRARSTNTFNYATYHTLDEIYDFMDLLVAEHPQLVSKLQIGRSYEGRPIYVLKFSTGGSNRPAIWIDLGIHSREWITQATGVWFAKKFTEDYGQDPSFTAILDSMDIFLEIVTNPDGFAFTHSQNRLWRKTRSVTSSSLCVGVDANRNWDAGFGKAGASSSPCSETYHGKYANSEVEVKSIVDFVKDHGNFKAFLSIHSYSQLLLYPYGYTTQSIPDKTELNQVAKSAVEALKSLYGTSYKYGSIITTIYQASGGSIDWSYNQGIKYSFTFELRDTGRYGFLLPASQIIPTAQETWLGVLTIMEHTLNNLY
Assay: Cooperative effect of the inhibitory zinc ion in the inhibition of CPA by the compound
measurementType: Cooperative effect

- compound: "O=C(O)C(Cc1ccccc1)Cc1c[nH]cn1 (centres undefined)"
  experimentalResult: 0.0047
- compound: "O=C(O)C(Cc1ccccc1)c1c[nH]cn1 (centres undefined)"
  experimentalResult: 1.88
- compound: "O=C(O)C(CCCc1c[nH]cn1)Cc1ccccc1 (centres undefined)"
  experimentalResult: 0.024
- compound: "O=C(O)C(CCc1c[nH]cn1)Cc1ccccc1 (centres undefined)"
  experimentalResult: 0.0056

Values compiled from ChEMBL document CHEMBL1134082.
